Ref: the supplement of paper PMC3545927

Target: furin, P09958;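 also: purified furin at 1:10 enzyme:substrate in 50 mM HEPES pH 7.5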
Sequence (P09958 whole entry): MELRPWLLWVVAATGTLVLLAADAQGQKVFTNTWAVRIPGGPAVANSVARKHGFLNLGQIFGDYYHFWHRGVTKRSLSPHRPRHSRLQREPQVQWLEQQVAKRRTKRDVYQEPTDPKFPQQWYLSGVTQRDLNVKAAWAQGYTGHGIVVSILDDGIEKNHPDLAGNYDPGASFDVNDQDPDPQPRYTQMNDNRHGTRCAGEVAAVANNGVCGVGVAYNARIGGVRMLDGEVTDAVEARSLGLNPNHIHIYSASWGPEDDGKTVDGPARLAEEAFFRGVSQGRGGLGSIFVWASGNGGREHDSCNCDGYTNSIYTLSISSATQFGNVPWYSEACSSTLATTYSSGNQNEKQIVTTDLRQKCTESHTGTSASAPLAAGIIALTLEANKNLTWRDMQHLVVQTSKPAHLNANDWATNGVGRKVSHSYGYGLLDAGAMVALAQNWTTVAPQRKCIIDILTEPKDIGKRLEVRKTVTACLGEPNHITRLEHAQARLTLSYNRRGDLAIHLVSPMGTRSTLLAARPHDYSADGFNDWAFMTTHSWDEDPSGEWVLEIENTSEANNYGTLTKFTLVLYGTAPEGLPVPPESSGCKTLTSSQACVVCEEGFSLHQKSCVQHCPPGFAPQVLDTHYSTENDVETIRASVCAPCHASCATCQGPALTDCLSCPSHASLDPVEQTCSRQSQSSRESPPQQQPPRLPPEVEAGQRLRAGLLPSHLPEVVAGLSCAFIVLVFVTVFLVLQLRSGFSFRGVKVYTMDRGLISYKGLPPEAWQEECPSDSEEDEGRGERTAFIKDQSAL
Test: furin cleavage Z-score vs untreated control; higher = more cleavage, active = 3.5 or more, inactive = 1 or less, 8 variable residues between constant flanks
Conditions: 15 min
The list shows a part of the results. How many sequences the whole screen found active is unknown.
experimental_endpoint: furin cleavage Z-score
Numbers only.

Here's what some known entries look like.
query_sequence	measured
CAGKAIPLEVAGNASASA [HC849]	-0.849
CARKRRGYSEAGNASASA [FS-2566]	5.38
CARMKRDTSLAGNASASA [FS-2354]	14.2
CAEEVTSTWVAGNASASA [HC2172]	0.0818

Give me furin cleavage Z-score for each of these sequences, listed below.
1. CANEMEECSQAGNASASA [HC1801]
2. CARSKRSTLLAGNASASA [FS-3171]

1: 0.682; 2: 9.65

Determine from records and report furin cleavage Z-score for CAMEECSWHLAGNASASA [HC1728]
1.63
